List of protein stability index values.
System: Saccharomyces cerevisiae
assay.details: protein stability index of tFT-peptide fusion (C-terminal peptide) (PSI (0-1 scale)); higher = more stable (slower turnover);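 also: PSI is a weighted mean of sequencing reads over stability bins, variants kept only with over 10 reads, mCherry proximal and sfGFP distal, peptide attached via GGGS linker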
experimental.parameters: genetic background: wild type; temperature: 30 C
Please give only the number in your answer, with no unit.

• RSGSGGVAGRRE = 0.692
• DGKNQGKAEGTK = 0.693
• LCAPPPSLSPFV = 0.708
• RACLDRNNLDLG = 0.605

So for PCPLPSPHPPPR , the logged protein stability index turned out to be 0.717

response.value for DHPFFCWDGVVK (field: protein stability index) = 0.687

====

Test system: Saccharomyces cerevisiae
assay.details: protein stability index of tFT-peptide fusion (C-terminal peptide) (PSI (0-1 scale)); higher = more stable (slower turnover)
experimental.parameters: genetic background: doa10 deletion; temperature: 30 C
protein stability index listing for selected sequences.
Respond numerically, and do not add a unit to the figure.

Use these answered entries as a reference point.
• MLVLFCLCYILG = 0.217
• PASYPPFIYLSI = 0.654
• TYCFRVCAWRAN = 0.176
• VFWVLVSFLFYV = 0.281
• HSPRVLLPLYFR = 0.672
• GFRVPVVVGVRG = 0.294
• CPPPCPLYMLLC = 0.163
• GGGGVFGVWVWM = 0.23

# protein stability index of GSLLWSGWSTCY = 0.67

Record LFHVWSLRFFWL , field protein stability index: 0.258

Notebook: RPPHPPPATFLS , protein stability index read as 0.226

The sequence listed as PPWRPVALLLLA has a reported protein stability index of 0.0824

The measured protein stability index associated with RRVPVHIHFSLF reads 0.156

Entry under test: LFLLYVLVSLFV . Its protein stability index was 0.222

Documented protein stability index of ARLTNYFVEWLS : 0.358

Reported protein stability index ( FFLRFGLFLFTL ) = 0.4

====

Tested on: Saccharomyces cerevisiae
assay.details: protein stability index of tFT-peptide fusion (C-terminal peptide) (PSI (0-1 scale)); higher = more stable (slower turnover)
experimental.parameters: genetic background: wild type; temperature: 30 C
endpoint.label: protein stability index
Just the number, please, no unit after it.

Answered cases to consult:
- GIISMYVARRLG: 0.285
- FESGINWLLSDK: 0.672
- VVGAVFFGCRLL: 0.6
- VRSFSFSALLAV: 0.58
- SPLSLSFLLLCL: 0.524
- VASDGGYGYLRF: 0.797

Entry KASEALGYTSNE — recorded protein stability index = 0.675

Quick note, protein stability index for PLAPPRSPHLPP landed at 0.673

response.value for VFRFGVCDDWCV (field: protein stability index) = 0.765

====

System: Saccharomyces cerevisiae
assay.details: protein stability index of tFT-peptide fusion (C-terminal peptide) (PSI (0-1 scale)); higher = more stable (slower turnover)
experimental.parameters: genetic background: das1 deletion; temperature: 30 C
Classify on protein stability index using low group = under 0.3, middle group = from 0.3 up to 0.5, high group = 0.5 and over

* GMGRVLVEVLLC | middle group
* SGPNASRFYAPI | high group
* ILISVNRVVLYC | low group
* YPLISVSLPCPS | middle group

Read the next record carefully.
Challenge: Would you mind sorting FVGVVCILWLVG into the appropriate category?
Response given: low group
